# TARGET DESC: UniProt:P27487
# Sequence (P27487 whole entry): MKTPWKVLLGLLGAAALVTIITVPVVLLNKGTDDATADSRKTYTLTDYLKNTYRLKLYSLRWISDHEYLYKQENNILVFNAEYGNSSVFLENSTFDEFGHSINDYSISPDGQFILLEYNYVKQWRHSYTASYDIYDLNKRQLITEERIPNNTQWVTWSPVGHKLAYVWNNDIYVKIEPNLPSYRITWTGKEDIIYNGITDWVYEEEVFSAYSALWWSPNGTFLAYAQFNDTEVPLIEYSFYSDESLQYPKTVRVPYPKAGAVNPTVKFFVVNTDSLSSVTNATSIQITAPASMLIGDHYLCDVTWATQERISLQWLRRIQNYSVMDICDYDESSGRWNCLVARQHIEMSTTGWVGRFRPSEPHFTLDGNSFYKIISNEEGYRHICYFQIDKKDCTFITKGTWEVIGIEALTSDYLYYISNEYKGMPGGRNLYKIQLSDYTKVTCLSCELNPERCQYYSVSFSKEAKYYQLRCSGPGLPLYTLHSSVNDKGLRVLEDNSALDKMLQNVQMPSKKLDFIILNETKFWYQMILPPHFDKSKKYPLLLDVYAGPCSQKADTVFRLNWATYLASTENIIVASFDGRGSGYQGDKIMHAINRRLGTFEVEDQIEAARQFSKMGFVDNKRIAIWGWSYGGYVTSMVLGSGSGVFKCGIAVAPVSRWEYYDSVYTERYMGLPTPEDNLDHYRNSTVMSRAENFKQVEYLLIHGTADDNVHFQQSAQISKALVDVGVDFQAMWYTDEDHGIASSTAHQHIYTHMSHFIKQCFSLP
# ASSAY NOTES: Inhibition of DPP4 in human plasma using Gly-Pro-AMC substrate incubated for 20 mins by fluorometry
pIC50: −log10 of the molar value.
RECORDED METRIC: pIC50

> print(dat)
                                   molecule     target.desc  recorded.metric  assay.result
1  CC#CC#CC#C/C=C/C=C/C(CCO)O[C@@H]1O[C@H](CO)[C@@H](O)[C@H](O)[C@H]1O (some centres not stated)  UniProt:P27487            pIC50        < 4.00

As a next step, examine the molecule that follows.
Prompt line: Look up pIC50 for this molecule: C=CC(O)C(/C=C/C#CC#CC#CC)O[C@@H]1O[C@H](CO)[C@@H](O)[C@H](O)[C@H]1O (some centres not stated)
Response line: < 4.00

Where these numbers come from: ChEMBL document CHEMBL3351808
